# MEASUREMENT TARGET: GST-MCL-1 (Homo sapiens)
# Sequence (Q07820 whole entry): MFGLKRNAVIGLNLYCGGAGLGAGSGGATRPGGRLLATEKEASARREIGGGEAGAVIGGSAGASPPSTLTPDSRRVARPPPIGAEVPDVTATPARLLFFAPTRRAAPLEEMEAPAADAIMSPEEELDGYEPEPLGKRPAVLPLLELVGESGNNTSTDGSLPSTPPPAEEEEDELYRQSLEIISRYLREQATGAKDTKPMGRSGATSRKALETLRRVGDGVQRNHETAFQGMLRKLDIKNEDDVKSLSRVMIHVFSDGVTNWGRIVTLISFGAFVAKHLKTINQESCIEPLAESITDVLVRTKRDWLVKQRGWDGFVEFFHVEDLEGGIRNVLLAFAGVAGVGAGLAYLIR
# TEST SUMMARY: TR-FRET MCL-1 binding assay (competition with probe F-Bak)
# MEASUREMENT PARAMETERS: MCL-1 Binding Ki (nM, 10% HS), in the presence of 10% HS (human serum)
MEASURE NAME: Ki (nM)
API: value field is a number in nM; no unit string.

Cc1c2ccc(c1Cl)O[C@H](CN1CCN(C)CC1)COc1ccc(OCc3ccnc(N4CCC5(CC4)CC(F)(F)CO5)n3)c(c1)C[C@H](C(=O)O)Oc1ncnc3sc(-c4ccc(F)cc4)c-2c13    16
COCCOCCOCCOCCOCCOCC1(C)CC=C(c2nccc(COc3ccc4cc3C[C@H](C(=O)O)Oc3ncnc5sc(-c6ccc(F)cc6)c(c35)-c3c(C)c(Cl)c(c(Cl)c3C)O[C@H](CN3CCN(C)CC3)CO4)n2)CC1 (single isomer, unassigned) [Example 84]    0.232
COCCOCCOCCOC[C@]1(F)CC[C@@H](c2nccc(COc3ccc4cc3C[C@H](C(=O)O)Oc3ncnc5sc(-c6ccc(F)cc6)c(c35)-c3c(C)c(Cl)c(c(Cl)c3C)O[C@H](CN3CCN(C)CC3)CO4)n2)CC1    27.3

Next:
[Q] Item COCCOCCOCCOCc1ccc(-c2nccc(COc3ccc4cc3C[C@H](C(=O)O)Oc3ncnc5sc(-c6ccc(F)cc6)c(c35)-c3c(C)c(Cl)c(c(Cl)c3C)O[C@H](CN3CCN(C)CC3)CO4)n2)cc1COCCOCCOCCOC has what recorded Ki?
[A] 0.041
